procedureDetails: Drug metabolism in Mycobacterium tuberculosis H37Rv assessed as compound remaining at 0.25 to 5 times MIC for 16 hrs measured 15 to 60 mins post compound washout
Assay type: ADME, organism-based
reportedConditions: Mycobacterium tuberculosis H37Rv cells, read-out: Stability
measure: remaining at 16 h

## Input Which remaining at 16 h value is on record for N[C@@H]1CON=C1O [CYCLOSERINE] ?
## Output < 10%
